The reported measurements were obtained from patent US20200109188A1.

# system: HA of A/Hong Kong/8/68 (H3N2) virus (influenza A virus)
# experimental details: cell-based or functional assay
value kind: Neutralization IC50, H3-HK68 (µg/mL)
Kindly provide the numeric value in µg/mL only, without the unit symbol.

So, Antibody 10 (antibody, V domains shown) VH: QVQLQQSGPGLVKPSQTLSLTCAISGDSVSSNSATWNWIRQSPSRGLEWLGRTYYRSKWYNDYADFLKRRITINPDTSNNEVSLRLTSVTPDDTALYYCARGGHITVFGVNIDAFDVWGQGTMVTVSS VL: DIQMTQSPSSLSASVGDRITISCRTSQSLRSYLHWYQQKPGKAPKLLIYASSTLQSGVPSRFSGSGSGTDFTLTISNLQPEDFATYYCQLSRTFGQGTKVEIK ? Its Neutralization IC50, H3-HK68 was 0.85

Summary for this binder, Antibody 6 (antibody, V domains shown) VH: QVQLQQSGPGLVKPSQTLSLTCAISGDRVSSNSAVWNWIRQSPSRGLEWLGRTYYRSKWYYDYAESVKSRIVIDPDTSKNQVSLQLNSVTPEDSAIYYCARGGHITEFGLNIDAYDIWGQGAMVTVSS VL: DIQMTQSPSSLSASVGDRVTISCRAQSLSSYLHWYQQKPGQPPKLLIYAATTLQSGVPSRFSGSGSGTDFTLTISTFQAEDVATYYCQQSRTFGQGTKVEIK : Neutralization IC50, H3-HK68 is 2.04
